Measured drug sensitivity score of individual entries
Test system: OVCAR8
assay-notes: drug sensitivity score (DSS2) on cancer cell count; higher = more sensitive; extreme values may be limits of the assay
test-conditions: co-cultured fibroblast: WI38; 72 h
Kindly format the answer as number then unit.

Consider the worked cases shown below.
[[record]]
sample_smiles = "CC1(C)CCC(CN2CCN(c3ccc(C(=O)NS(=O)(=O)c4ccc(NCC5CCOCC5)c([N+](=O)[O-])c4)c(Oc4cnc5[nH]ccc5c4)c3)CC2)=C(c2ccc(Cl)cc2)C1"
data_value = "0 DSS"

[[record]]
sample_smiles = "Cc1nn(C)c(COc2ccc(N3CCN(S(=O)(=O)N(C)C)CC3)cc2)c1-c1cccc2c(CCCOc3cccc4ccccc34)c(C(=O)O)n(CCN3CCOCC3)c12"
data_value = "4 DSS"


Request: Give the measured drug sensitivity score of CN(C(=O)c1ccc(F)cc1C(F)(F)F)C1CCN(c2nnc(-c3ccnn3C)c3ccccc23)CC1 .
Response: 0 DSS

Request: Look up drug sensitivity score for this compound: Nc1ccccc1NC(=O)c1ccc(CNC(=O)OCc2cccnc2)cc1
Response: 11.7 DSS

Request: Quick check: drug sensitivity score of Cc1cccc(-c2[nH]c(CNc3ccccc3F)nc2-c2ccc3ncnn3c2)n1 ?
Response: 16.2 DSS

Request: For the compound shown here, CCN(CC)CCN(Cc1ccc(-c2ccc(C(F)(F)F)cc2)cc1)C(=O)Cn1c(SCc2ccc(F)cc2)nc(=O)c2c1CCC2 , give the reported drug sensitivity score.
Response: 8.3 DSS

Request: Look up drug sensitivity score: O=C(Nc1cccnc1)N1CCC(Cc2cccc(Oc3ccc(C(F)(F)F)cn3)c2)CC1
Response: 0 DSS

----------
Tested on: OVCAR8
assay-notes: drug sensitivity score (DSS2) on cancer cell count; higher = more sensitive; extreme values may be limits of the assay
test-conditions: co-cultured fibroblast: BJHTERT; 72 h
Reported drug sensitivity score values are given for each entry in this list.

Check out these entries, answers already filled in.
[[record]]
compound = "Cc1cc(Nc2cc(CN3CCOCC3)c3nc(C)c(Cc4ccc(Cl)cc4F)n3n2)n[nH]1"
data_value = "9 DSS"

[[record]]
compound = "O=C(O)c1ccc(-c2c[nH]c3ncc(-c4ccccc4)cc23)cc1C1CCCC1"
data_value = "2 DSS"

[[record]]
compound = "N.N.[Cl][Pt][Cl] [Cisplatin]"
data_value = "7.2 DSS"

[[record]]
compound = "Cn1ncnc1[C@H]1c2n[nH]c(=O)c3cc(F)cc(c23)N[C@@H]1c1ccc(F)cc1"
data_value = "19.5 DSS"

[[record]]
compound = "CNC(=O)c1ccc2cc([C@@]3(O)CCn4cncc43)ccc2c1"
data_value = "0 DSS"


Request: For NS(=O)(=O)OC[C@@H]1C[C@@H](n2ccc3c(N[C@H]4CCc5ccccc54)ncnc32)C[C@@H]1O , what is its reported drug sensitivity score?
Response: 20.9 DSS

Request: Item Nc1nccc(-c2c(-c3ccc(F)cc3)ncn2C2CCCCC2)n1 has what recorded drug sensitivity score?
Response: 1.4 DSS

Request: Quick check: drug sensitivity score of CNC(=O)c1ccccc1Sc1ccc2c(/C=C/c3ccccn3)n[nH]c2c1 ?
Response: 7.4 DSS

Request: For the compound CC(=O)c1cnc2ccc(-c3cc(Cl)c(O)c(Cl)c3)nc2c1N[C@H]1CC[C@H](CN(C)C)CC1 , what drug sensitivity score is on record?
Response: 20.6 DSS

Request: Name the reported drug sensitivity score value associated with the compound CNC(=O)c1ccc(C)c(-n2c(C)cc(OCc3ccc(F)cc3F)c(Br)c2=O)c1
Response: 0.9 DSS

Request: Entry under review: Cc1nc(=O)c2cc(CN(C)c3ccc(C(=O)N[C@@H](CCC(=O)O)C(=O)O)s3)ccc2[nH]1 . Reported drug sensitivity score?
Response: 16.4 DSS

Request: drug sensitivity score lookup needed for COc1cc2c(cc1OCCCN1CCCC1)N=C(N)C21CCC1 , thanks.
Response: 4.1 DSS

Request: Field request: drug sensitivity score | item: COc1cc2nccc(Oc3ccc(NC(=O)C4(C(=O)Nc5ccc(F)cc5)CC4)cc3)c2cc1OC [Cabozantinib]
Response: 0 DSS

----------
Tested on: OVCAR8
assay-notes: drug sensitivity score (DSS2) on cancer cell count; higher = more sensitive; extreme values may be limits of the assay
test-conditions: co-cultured fibroblast: BJHTERT; 72 h
experimental-endpoint: drug sensitivity score (DSS)
Report the figure in DSS without appending any unit label.

Below, each entry is followed by its recorded drug sensitivity score result.
[[record]]
molecule = "CN1CCN(CCOc2cc(OC3CCOCC3)c3c(Nc4c(Cl)ccc5c4OCO5)ncnc3c2)CC1"
target_desc = "OVCAR8"
unit_tag = "DSS"
data_value = 9.2

[[record]]
molecule = "Cc1sc2c(c1C)C(c1ccc(Cl)cc1)=N[C@@H](CC(=O)Nc1ccc(O)cc1)c1nnc(C)n1-2"
target_desc = "OVCAR8"
unit_tag = "DSS"
data_value = 19.5

[[record]]
molecule = "Cc1c(-c2c(-c3ccc(F)o3)sc3ncnc(O[C@H](Cc4ccccc4OCc4ccnn4CC(F)(F)F)C(=O)O)c23)ccc(OCCN2CCN(C)CC2)c1Cl"
target_desc = "OVCAR8"
unit_tag = "DSS"
data_value = 0


Now take the following molecule into account.
Request: Could you share which drug sensitivity score value was measured for NCC(=O)Nc1ccc(-n2nc(C(F)(F)F)cc2-c2ccc3c(ccc4ccccc43)c2)cc1 ?
Response: 0

----------
System: OVCAR8
assay-notes: drug sensitivity score (DSS2) on cancer cell count; higher = more sensitive; extreme values may be limits of the assay
test-conditions: co-cultured fibroblast: BJHTERT; 72 h
Rule: class 1 for drug sensitivity score not less than 10 DSS, class 0 for anything less.

Consider the worked cases shown below.
[[record]]
molecule = "Cc1nc(Nc2ncc(C(=O)Nc3c(C)cccc3Cl)s2)cc(N2CCN(CCO)CC2)n1 [Dasatinib]"
discrete_label = "class 1"

[[record]]
molecule = "COc1cccc(OCCCN)c1-c1cc(Nc2cnc(C#N)cn2)n[nH]1 [Prexasertib]"
discrete_label = "class 1"

[[record]]
molecule = "NC(=O)N1CCC(CC(=O)N2CCC([C@H]3c4ncc(Br)cc4CCc4cc(Cl)cc(Br)c43)CC2)CC1 [Lonafarnib]"
discrete_label = "class 1"

[[record]]
molecule = "CN1CCN(c2ccc(C(=O)Nc3n[nH]c4ccc(Cc5cc(F)cc(F)c5)cc34)c(NC3CCOCC3)c2)CC1 [Entrectinib]"
discrete_label = "class 0"

[[record]]
molecule = "CO[C@@H]1[C@H](N(C)C(=O)c2ccccc2)C[C@H]2O[C@]1(C)n1c3ccccc3c3c4c(c5c6ccccc6n2c5c31)C(=O)NC4 [Midostaurin]"
discrete_label = "class 1"


Request: Threshold query (drug sensitivity score >= 10 DSS) on N#CC1(c2ccc(NC(=O)c3cccnc3NCc3ccncc3)cc2)CCCC1 [Apatinib]
Response: class 0

Request: Kindly determine if drug sensitivity score recorded for CCOc1cc2ncc(C#N)c(Nc3ccc(OCc4ccccn4)c(Cl)c3)c2cc1NC(=O)/C=C/CN(C)C [Neratinib] is above or exactly 10 DSS.
Response: class 0

----------
System: OVCAR8
assay-notes: drug sensitivity score (DSS2) on cancer cell count; higher = more sensitive; extreme values may be limits of the assay
test-conditions: co-cultured fibroblast: BJHTERT; 72 h
Documented drug sensitivity score across a set of compounds
Please reply with the bare figure in DSS and do not write the unit itself.

Request: Recorded drug sensitivity score of CNC(=O)c1cccc(-c2ccc3c(N4CCOC[C@@H]4C)nc(N4CCOC[C@@H]4C)nc3n2)c1 , please.
Response: 13.1

Request: Any idea what drug sensitivity score was measured for C/C(=C\c1csc(C)n1)[C@@H]1C[C@@H]2O[C@]2(C)CCC[C@H](C)[C@H](O)[C@@H](C)C(=O)C(C)(C)[C@@H](O)CC(=O)N1 [Ixabepilone] ?
Response: 5.8

----------
Tested on: OVCAR8
assay-notes: drug sensitivity score (DSS2) on cancer cell count; higher = more sensitive; extreme values may be limits of the assay
test-conditions: co-cultured fibroblast: BJHTERT; 72 h
experimental-endpoint: drug sensitivity score (DSS)
I only need the number, in DSS, no unit after it.

[[record]]
compound = "CNC(=O)c1ccc(N2C(=S)N(c3cnc(C#N)c(C(F)(F)F)c3)C(=O)C23CCC3)cc1F [Apalutamide]"
data_value = 0

[[record]]
compound = "O=c1ncn2nc(Sc3ccc(F)cc3F)ccc2c1-c1c(Cl)cccc1Cl"
data_value = 0

[[record]]
compound = "Nc1cc(F)ccc1NC(=O)/C=C/c1cnn(C/C=C/c2ccccc2)c1"
data_value = 1.6


Request: Please look up its drug sensitivity score: CO[C@@H](C(=O)N1Cc2[nH]nc(NC(=O)c3ccc(N4CCN(C)CC4)cc3)c2C1)c1ccccc1
Response: 15

Request: Recorded drug sensitivity score for CCn1c(-c2nonc2N)nc2c(C#CC(C)(C)O)ncc(OC[C@H]3CCCNC3)c21 , please?
Response: 0.2

Request: Query (compound): CC[C@]1(O)C[C@@H]2CN(CCc3c([nH]c4ccccc34)[C@@](C(=O)OC)(c3cc4c(cc3OC)N(C)[C@H]3[C@@](O)(C(=O)OC)[C@H](OC(C)=O)[C@]5(CC)C=CCN6CC[C@]43[C@@H]65)C2)C1 ; field requested: drug sensitivity score
Response: 18.9

Request: Give the measured drug sensitivity score of COc1cc(OC2CCN(C)CC2)ccc1Nc1ncc2c(n1)n(C1CCCC1)c(=O)n2C .
Response: 8.3

Request: Returns the measured drug sensitivity score for the input compound. Input: Cc1cc(Nc2cc(N3CCN(C)CC3)nc(Sc3ccc(NC(=O)C4CC4)cc3)n2)n[nH]1
Response: 20.1

Request: Request the reported drug sensitivity score associated with CCN1CCN(c2ccc(Nc3cc(N(C)C(=O)Nc4c(Cl)c(OC)cc(OC)c4Cl)ncn3)cc2)CC1
Response: 0

Request: Could you share which drug sensitivity score value was measured for O=C(/C=C/c1cccc(S(=O)(=O)Nc2ccccc2)c1)NO ?
Response: 17.7
